Source: ChEMBL document CHEMBL4028870

# EXPERIMENT SUMMARY: Half life in rat plasma at 10 uM up to 360 mins by LC-MS/MS analysis
# Assay type: ADME, cell-free
METRIC: half-life at 10 µM

# query: half-life at 10 µM of entry CC(CCc1ccccc1)C(=O)NO (centres undefined)
> 6 h

# query: half-life at 10 µM of entry CC(C)(C(=O)NO)C(=O)NCc1ccccc1
> 6 h

# query: half-life at 10 µM of entry O=C(NO)[C@H](Cc1ccccc1)NS(=O)(=O)c1ccccc1
0.1 h

# query: half-life at 10 µM of entry O=C(CC12CC3CC(CC(C3)C1)C2)NO
> 6 h

# query: half-life at 10 µM of entry O=C(CC(=O)NCc1ccccc1)NO
> 6 h

# query: half-life at 10 µM of entry O=C(CNCc1ccccc1)NO
3.6 h

# query: half-life at 10 µM of entry O=C(CCCCc1ccccc1)NO
0.9 to 0.93 h

# query: half-life at 10 µM of entry O=C(NO)C(CCc1ccccc1)Cc1ccccc1 (centres undefined)
> 6 h

# query: half-life at 10 µM of entry O=C(/C=C/c1ccc(-c2ccccc2)cc1)NO
> 6 h

# query: half-life at 10 µM of entry O=C(/C=C/c1ccc(S(=O)(=O)Nc2ccccc2)cc1)NO
> 6 h

# query: half-life at 10 µM of entry O=C(CCNCc1ccccc1)NO
2.1 h

# query: half-life at 10 µM of entry CC(CCc1ccccc1)(C(=O)NO)S(=O)(=O)c1ccccc1 (centres undefined)
> 6 h

# query: half-life at 10 µM of entry O=C(N[C@@H](CO)C(=O)NO)c1ccc(-c2ccccc2)cc1
> 6 h

# query: half-life at 10 µM of entry O=C(NCC(C(=O)NO)N1CCCCC1)c1ccccc1 (centres undefined)
0.4 h

# query: half-life at 10 µM of entry O=C(C=C(c1ccccc1)c1ccccc1)NO
> 6 h

# query: half-life at 10 µM of entry O=C(NO)C(CCc1ccccc1)S(=O)(=O)c1ccccc1 (centres undefined)
> 6 h

# query: half-life at 10 µM of entry CC(C(=O)NO)C(=O)NCc1ccccc1 (centres undefined)
> 6 h

# query: half-life at 10 µM of entry O=C(CCCCCc1ccccc1)NO
4.5 h

# query: half-life at 10 µM of entry CC(Cc1ccccc1)(C(=O)NO)C(=O)NCc1ccccc1 (centres undefined)
1.5 h

# query: half-life at 10 µM of entry O=C(NO)C(Cc1ccc2ccccc2c1)C(=O)NCc1ccccc1 (centres undefined)
0.1 h

# query: half-life at 10 µM of entry O=C(NO)[C@@H](Cc1ccccc1)N(Cc1ccccc1)S(=O)(=O)c1ccccc1
> 6 h

# query: half-life at 10 µM of entry O=C(CCCC1CCCCC1)NO
0.05 h

# query: half-life at 10 µM of entry O=C(CNC(=O)Cc1ccccc1)NO
0.29 h

# query: half-life at 10 µM of entry O=C(NO)C1(C(=O)NCc2ccccc2)CC1
> 6 h

# query: half-life at 10 µM of entry O=C(NO)C(Cc1ccccc1)C(=O)NCc1ccncc1 (centres undefined)
3.3 h

# query: half-life at 10 µM of entry O=C(CNCCc1ccccc1)NO
0.5 h

# query: half-life at 10 µM of entry O=C(CCNC(=O)c1ccccc1)NO
2.5 h

# query: half-life at 10 µM of entry O=C(NO)C1(NS(=O)(=O)c2ccccc2)CCOCC1
> 6 h

# query: half-life at 10 µM of entry CC(C)[C@H](C(=O)NO)N(Cc1ccccc1)S(=O)(=O)c1ccccc1
> 6 h

# query: half-life at 10 µM of entry CCCCc1nc2cc(/C=C/C(=O)NO)ccc2n1CCN(CC)CC
> 6 h

# query: half-life at 10 µM of entry O=C(CCC(=O)Nc1ccccc1)NO
0.43 h

# query: half-life at 10 µM of entry O=C(NO)C1Cc2ccccc2CN1S(=O)(=O)c1ccccc1 (centres undefined)
0.7 h

# query: half-life at 10 µM of entry O=C(CCC12CC3CC(CC(C3)C1)C2)NO
0.5 h

# query: half-life at 10 µM of entry O=C(CCC1CCCCC1)NO
0.06 h
